Data origin: patent US11072628B2

Tested on: MRC-5 fibroblasts
Assay: in vitro
Experimental: Cytotoxicity was assayed against MRC-5 fibroblasts. Results are depicted in Tables 4 and 5.
METRIC: EC50

Sample records with EC50:
CC(C)c1ccc(-c2cn([C@@H]3O[C@H](CO)C[C@H]3O)c3ncnc(N)c23)cc1; 24.9 µM
Nc1ncnc2c1c(Br)cn2[C@@H]1OC(CO)(CO)C[C@H]1O; > 64 µM

Noted for "O=c1[nH]cnc2c1c(Br)cn2[C@@H]1O[C@H](CO)C[C@H]1O" : its EC50 reads > 64 µM

Record "Nc1ncnc2c1c(-c1ccc3ccccc3c1)cn2[C@@H]1O[C@H](CO)C[C@H]1O" , field EC50: 5 µM

Form: compound = "CNc1ncnc2c1c(Br)cn2[C@@H]1O[C@H](CO)C[C@H]1O" ; EC50 = > 64 µM

Sample "OC[C@@H]1C[C@@H](O)[C@H](n2ccc3c(Cl)ccnc32)O1" ; EC50 observed: > 64 µM

GET /value?item= "Nc1ccnc2c1ccn2[C@@H]1O[C@H](CO)C[C@H]1O" &field=EC50 returns > 64 µM

Lookup result for "CO[C@@H]1C[C@@H](CO)O[C@H]1n1cc(Br)c2c(N)ncnc21" ; measured EC50: > 64 µM

What the record says about "CSc1ncnc2c1c(Br)cn2[C@@H]1O[C@H](CO)C[C@H]1O" : EC50 is 0.29 µM

----------
Reported pEC50 is given for each of the following compounds.
tested on: T. b. rhodesiense STIB-900; experiment: In vitro drug susceptibility, T. b. rhodesiense STIB-900 (resazurin); assay type: cell-based, Trypanosoma brucei rhodesiense; conditions: Trypanosoma brucei, RHODESIENSE; Table 4; average of 2-6 independent determinations; read-out: T.b. rhod. EC50
Please report pEC50 as the negative decimal logarithm of the molar concentration, giving only the number.

Cc1ccc(C(=O)Nc2ccc(S(=O)(=O)O)c3cc(S(=O)(=O)O)cc(S(=O)(=O)O)c23)cc1NC(=O)c1cccc(NC(=O)Nc2cccc(C(=O)Nc3cc(C(=O)Nc4ccc(S(=O)(=O)O)c5cc(S(=O)(=O)O)cc(S(=O)(=O)O)c45)ccc3C)c2)c1 [Suramin, reference compound]; 7.40

The reported pEC50 of the compound "Nc1ncnc2c1c(Br)cn2[C@@H]1O[C@H](CO)[C@@H](O)[C@H]1O" was 6.92

----------
tested on: T. b. rhodesiense STIB-900; experiment: In vitro drug susceptibility, T. b. rhodesiense STIB-900 (resazurin); assay type: cell-based, Trypanosoma brucei rhodesiense; conditions: Trypanosoma brucei, RHODESIENSE, read-out: T.b. rhod. EC50
METRIC: EC50 (nM)
Respond with the bare value in nM.

Nc1ncnc2c1c(-c1ccccn1)cn2[C@@H]1O[C@H](CO)[C@@H](O)[C@H]1O; 31
COc1ncnc2c1c(Cl)cn2[C@@H]1O[C@H](CO)[C@@H](O)[C@H]1O; 40
Nc1ncnc2c1c(-c1ccc(F)cn1)cn2[C@@H]1O[C@H](CO)[C@@H](O)[C@H]1O; 1690
Nc1ncnc2c1c(-c1cc(Cl)cc(Cl)c1)cn2[C@@H]1O[C@H](CO)[C@@H](O)[C@H]1O; 3660
CCCOc1ncnc2c1c(Cl)cn2[C@@H]1O[C@H](CO)[C@@H](O)[C@H]1O; 80
CCCCOc1ncnc2c1c(Cl)cn2[C@@H]1O[C@H](CO)[C@@H](O)[C@H]1O; 40

Measured EC50 (T. b. rhodesiense STIB-900), entry "Nc1ncnc2c1c(-c1ccc(Cl)cn1)cn2[C@@H]1O[C@H](CO)[C@@H](O)[C@H]1O" : 4600

----------
assay: Cytotoxicity against MRC-5 fibroblasts; conditions: human, MRC-5 fibroblasts, MRC-5 EC50, Table 5; cytotoxicity
METRIC: EC50

Please review the following examples before continuing.
Nc1ncnc2c1c(-c1cc(Cl)cc(Cl)c1)cn2[C@@H]1O[C@H](CO)[C@@H](O)[C@H]1O; > 64 µM
Nc1ccnc2c1c(I)cn2[C@@H]1O[C@H](CO)[C@@H](O)[C@H]1O; > 64 µM

Reported EC50 for "Nc1ncnc2c1c(-c1ccc(F)cn1)cn2[C@@H]1O[C@H](CO)[C@@H](O)[C@H]1O" was > 64 µM

The reported value for "Nc1ncnc2c1c(-c1ccc(F)cc1)cn2[C@@H]1O[C@H](CO)[C@@H](O)[C@H]1O" in terms of EC50 is > 64 µM

----------
Item-by-item account of pEC50
assay: Cytotoxicity against MRC-5 fibroblasts; conditions: human, MRC-5 fibroblasts, MRC-5 EC50, Table 5; cytotoxicity
pEC50: −log10 of the molar value.

Value of measured pEC50 for the entry Nc1ncnc2c1c(-c1cccc(Cl)n1)cn2[C@@H]1O[C@H](CO)[C@@H](O)[C@H]1O [MS1034] : < 4.19

Note to self: pEC50 recorded for Nc1ncnc2c1c(-c1ccc(Cl)cn1)cn2[C@@H]1O[C@H](CO)[C@@H](O)[C@H]1O [MS1039] was < 4.19

Entry Nc1ncnc2c1c(-c1cccnc1)cn2[C@@H]1O[C@H](CO)[C@@H](O)[C@H]1O [FH4185] , pEC50 reported as < 4.19

----------
METRIC: melting point

Cc1ccc(-c2cn([C@@H]3O[C@H](CO)C[C@H]3O)c3ncnc(N)c23)cc1Cl; 135 °C
Nc1ncnc2c1c(-c1ccc([N+](=O)[O-])cc1)cn2[C@@H]1O[C@H](CO)C[C@H]1O; 254 °C (dec.)
Nc1ncnc2c1c(C#Cc1ccccc1)cn2[C@@H]1O[C@H](CO)C[C@H]1O; 120 °C
Nc1ncnc2c1c(-c1ccc(F)cc1)cn2[C@@H]1O[C@H](CO)C[C@H]1O; 186 to 187 °C
Nc1ncnc2c1c(-c1ccc(Cl)c(F)c1)cn2[C@@H]1O[C@H](CO)C[C@H]1O; 206 °C
OC[C@@H]1C[C@@H](O)[C@H](n2cc(Br)c3cncnc32)O1; 186 °C
Nc1ncnc2c1c(-c1ccc(F)cc1)cn2[C@@H]1O[C@H](CO)[C@@H](O)[C@H]1O; 145 to 148 °C (dec.)
Nc1ncnc2c1c(-c1ccc(F)c(Cl)c1)cn2[C@@H]1O[C@H](CO)C[C@H]1O; 178 °C
Nc1ncnc2c1c(-c1ccc(F)c(F)c1)cn2[C@@H]1O[C@H](CO)C[C@H]1O; 218 °C
Nc1ncnc2c1c(-c1cccc(Cl)c1)cn2[C@@H]1O[C@H](CO)[C@@H](O)[C@H]1O; 135 °C

Reported melting point of "Nc1ncnc2c1c(-c1cc(Cl)cc(Cl)c1)cn2[C@@H]1O[C@H](CO)C[C@H]1O" : 211 °C

melting point recorded for this compound, "CCc1ccc(-c2cn([C@@H]3O[C@H](CO)C[C@H]3O)c3ncnc(N)c23)cc1" , is 114 °C

Field melting point (entry "Nc1ncnc2c1c(-c1cc(Cl)cc(Cl)c1)cn2[C@@H]1O[C@H](CO)[C@@H](O)[C@H]1O" ) reads 219 °C

Value of measured melting point for the entry "Cc1ccc(-c2cn([C@@H]3O[C@H](CO)[C@@H](O)[C@H]3O)c3ncnc(N)c23)cc1" : 165 °C

For record "Nc1ncnc2c1c(-c1cccc(Cl)c1)cn2[C@@H]1O[C@H](CO)C[C@H]1O" the listed melting point is 130 °C

----------
test: Cytotoxicity against MRC-5 fibroblasts; details: human, MRC-5 fibroblasts, MRC-5 EC50, Table 1; cytotoxicity
pEC50: −log10 of the molar value.
METRIC: pEC50

Worked examples follow.
Nc1ncnc2c1c(-c1ccc([N+](=O)[O-])cc1)cn2[C@@H]1O[C@H](CO)C[C@H]1O; < 4.19
CCCC#Cc1cn([C@@H]2O[C@H](CO)C[C@H]2O)c2ncnc(N)c12; < 4.19

response.value for "CCCCC#Cc1cn([C@@H]2O[C@H](CO)C[C@H]2O)c2ncnc(N)c12" (field: pEC50) = < 4.19
